# key: entry, value: inhibition
system: Fam108B (ABHD17B) serine hydrolase [Mus musculus]; assay: mouse Fam108B serine hydrolase inhibitors, primary screen, counter-screen for RBBP9 inhibitor project, biochemical, fluorescence polarization (AID 1947); conditions: recombinant Fam108B, FP-Rh probe fluorescence polarization; at 9.51 µM; stronger effect = higher value;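 further: inhibitors lower polarization as less probe binds the enzyme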
Out of some 300,000 compounds screened, about 990 (0.33%) were called active. For the sample, actives were picked, then their nearest neighbours and some compounds at random.
quantity_kind: inhibition (%)

compound: CC1=NN(C(N)=S)C(=O)C1N=Nc1cc(Cl)ccc1Cl (centres undefined)
measurement_units: %
measurement: 1.09
--
compound: COC(=O)CN1C(=O)[C@H]2[C@@H](C3CC3)N3C(=O)CN(Cc4ccc(-c5ccccc5)cc4)C(=O)[C@@]3(Cc3ccccc3)[C@H]2C1=O
measurement_units: %
measurement: 0.43
--
compound: Cc1[nH]n(C(N)=S)c(=O)c1N=Nc1ccc(Cl)cc1Cl
measurement_units: %
measurement: 20.8
--
compound: Cc1cccc(N=Nc2c(C)[nH]n(-c3ccccc3)c2=O)c1
measurement_units: %
measurement: 4.19
--
compound: O=C(O)COc1ccc(-c2nccc(-c3cccs3)n2)cc1
measurement_units: %
measurement: -4.89
--
compound: O=C(CCCn1c(SCC(=O)c2ccccc2)nc2ccccc2c1=O)NCC1CCCO1 (centres undefined)
measurement_units: %
measurement: -0.5
--
compound: CC(C)N1CCC(N2CCN(Cc3cccnc3)CC2CCO)CC1 (centres undefined)
measurement_units: %
measurement: 1.03
--
compound: COC(=O)CSc1nccc(-c2cccs2)n1
measurement_units: %
measurement: 25.3
--
compound: COc1cc(Cl)c(C)cc1NC(=O)CSc1nnc(-c2ccco2)n1CC(C)C
measurement_units: %
measurement: 0.55

* * *

# key: entry, value: inhibition
system: Fam108B (ABHD17B) serine hydrolase [Mus musculus]; assay: mouse Fam108B serine hydrolase inhibitors, primary screen, counter-screen for RBBP9 inhibitor project, biochemical, fluorescence polarization (AID 1947); conditions: recombinant Fam108B, FP-Rh probe fluorescence polarization; at 9.51 µM; stronger effect = higher value;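 further: inhibitors lower polarization as less probe binds the enzyme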
Out of some 300,000 compounds screened, about 990 (0.33%) were called active. For the sample, actives were picked, then their nearest neighbours and some compounds at random.
quantity_kind: inhibition (%)

molecule: O=c1[nH]c(SCc2ccccc2)nnc1-c1ccccc1
quantity_kind: inhibition
measurement_units: %
measurement: -0.14
//
molecule: Fc1cccc(Cl)c1CSc1ccc(-c2ccco2)nn1
quantity_kind: inhibition
measurement_units: %
measurement: -2.56
//
molecule: Cc1nn(Cc2ccc(F)cc2)c(C)c1NC(=O)c1noc2c1CCc1ccccc1-2
quantity_kind: inhibition
measurement_units: %
measurement: -3.92
//
molecule: O=C(CSc1nnc(C2CC2)n1Cc1ccccc1)Nc1cccnc1Cl
quantity_kind: inhibition
measurement_units: %
measurement: 1.49
//
molecule: Cc1ccc(-n2c(C)nnc2SCC(=O)NC2CC2)cc1
quantity_kind: inhibition
measurement_units: %
measurement: 2.72
//
molecule: Cn1cnnc1Sc1ccc(S(C)(=O)=O)cc1[N+](=O)[O-]
quantity_kind: inhibition
measurement_units: %
measurement: 0.49
//
molecule: COc1ccc(OC)c(/C=C/C(=O)OCC(=O)Nc2ccc3c(c2)OCCO3)c1
quantity_kind: inhibition
measurement_units: %
measurement: -4.2
//
molecule: Cc1cc(C)cc(C(=O)NC2C(=O)N3C(C(=O)O)=C(CSc4nnc(C)s4)CSC23)c1 (stereo not drawn)
quantity_kind: inhibition
measurement_units: %
measurement: 0.52
//
molecule: COc1ccc(NC(=S)SC)cc1OC
quantity_kind: inhibition
measurement_units: %
measurement: 2.25
//
molecule: CC1C(=O)C(C)C(c2ccc(O)cc2)NC1c1ccc(O)cc1 (stereo not drawn)
quantity_kind: inhibition
measurement_units: %
measurement: -5.96
//
molecule: c1ccc(CSc2nnc(-c3ccco3)c(-c3ccco3)n2)cc1
quantity_kind: inhibition
measurement_units: %
measurement: 19.7
//
molecule: CC1=CC2=NC(=O)CC(C)(C(=O)N(CC(=O)NC(C)(C)C)Cc3ccccc3)N2C=C1 (stereo not drawn)
quantity_kind: inhibition
measurement_units: %
measurement: 0.82
//
molecule: O=c1cc(O)nc(SCc2ccccc2Cl)[nH]1
quantity_kind: inhibition
measurement_units: %
measurement: -1.05
//
molecule: CCC(C)N(C(=O)COC(=O)c1nc(Cl)ccc1Cl)C1CCS(=O)(=O)C1 (stereo not drawn)
quantity_kind: inhibition
measurement_units: %
measurement: 4.9
//
molecule: CCOC(=O)c1c(CC(C)C)csc1/N=C/C1=C(O)CCCC1=O
quantity_kind: inhibition
measurement_units: %
measurement: -3.29
//
molecule: Brc1ccccc1C1Nc2cccc3cccc(c23)N1
quantity_kind: inhibition
measurement_units: %
measurement: 11.3
//
molecule: Nc1ccc2nc3c(=O)[nH]c(=S)[nH]c3nc2c1
quantity_kind: inhibition
measurement_units: %
measurement: 29.3
//
molecule: Cc1ccc(-c2nc3c(cnn3-c3ccccc3)c(=O)o2)cc1
quantity_kind: inhibition
measurement_units: %
measurement: 22.6
//
molecule: O=C(Cn1cc(/C=N/NC(=O)c2cccc(C(F)(F)F)c2)c2ccccc21)Nc1ccc(F)cc1
quantity_kind: inhibition
measurement_units: %
measurement: 4.38
//
molecule: COc1cccc(C2Nc3cccc4cccc(c34)N2)c1
quantity_kind: inhibition
measurement_units: %
measurement: 23
//
molecule: COc1ccc2nc(SCc3ccccc3)nc(C)c2c1
quantity_kind: inhibition
measurement_units: %
measurement: -2.64
//
molecule: COc1ccc(N2CCN(S(=O)(=O)c3cc4c5c(c3)C(C)C(=O)N5CCC4)CC2)cc1 (stereo not drawn)
quantity_kind: inhibition
measurement_units: %
measurement: 2.45
//
molecule: Oc1ccc(C2Nc3cccc4cccc(c34)N2)cc1
quantity_kind: inhibition
measurement_units: %
measurement: 44.7
